- Study Target: Cytochrome P450 11B2, mitochondrial (Homo sapiens)
- Sequence (P19099 whole entry): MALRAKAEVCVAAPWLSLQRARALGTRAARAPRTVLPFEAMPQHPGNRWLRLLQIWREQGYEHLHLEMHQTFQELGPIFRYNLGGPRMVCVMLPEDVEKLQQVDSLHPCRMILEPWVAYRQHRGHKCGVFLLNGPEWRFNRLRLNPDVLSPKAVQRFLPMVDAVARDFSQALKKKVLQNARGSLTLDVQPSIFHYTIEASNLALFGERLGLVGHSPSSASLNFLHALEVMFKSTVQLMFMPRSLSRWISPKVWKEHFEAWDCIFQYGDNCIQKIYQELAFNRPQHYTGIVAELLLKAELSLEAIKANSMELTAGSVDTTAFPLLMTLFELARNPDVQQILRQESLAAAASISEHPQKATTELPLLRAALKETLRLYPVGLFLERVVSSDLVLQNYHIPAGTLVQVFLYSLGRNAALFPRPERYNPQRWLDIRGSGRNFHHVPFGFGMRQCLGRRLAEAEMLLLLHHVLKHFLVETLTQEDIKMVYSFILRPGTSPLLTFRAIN
- Procedure Text: In vitro inhibition of human CYP11B2 expressed in Schizosaccharomyces pombe incubated with 100 nM of substrate deoxy-corticosterone in presence of 500 nM of compound
Measured Endpoint: inhibition at 0.5 µM (%)

(1) C(=C(c1ccccc1)c1ccccc1)c1ccncc1
(2) C(=C1/CC(c2ccccc2)c2ccccc21)/c1cccnc1 (configuration not stated)
(3) CC1C/C(=C/c2cccnc2)c2ccccc21 (configuration not stated)
(4) C(=C1/CCCc2ccccc21)/c1ccncc1
(5) COc1cc2c(cc1OC)/C(=C/c1cccnc1)CCC2
Q: Rank the items above by inhibition at 0.5 µM, largest value first. Labels, requested order.
Result: 4, 1, 3, 5, 2
(4: 54%, 1: 32%, 3: 15%, 5: 5%, 2: 0%)
